Numbers sourced from the NIST ThermoML archive (doi:10.1021/je050159x).

# Applied Conditions: 308.15 K
± gives the expanded uncertainty stated by the source.
Quantity: surface tension liquid-gas
Returns: string containing the numeric result and its unit.

>>> result("CCCCCCC")
"18.58 ± 0.59 mN/m"
>>> result("CCCCCC")
"16.92 ± 0.56 mN/m"
>>> result("C1CCCCC1")
"23.21 ± 0.7 mN/m"
>>> result("OCc1ccccc1")
"37.63 ± 1.1 mN/m"

# input for lookup
Which measured surface tension liquid-gas value corresponds to CCCCCCCCC ?
21.49 ± 0.66 mN/m

* * *

# Applied Conditions: 293.15 K; 101.33 kPa; Liquid
Please enter true where mass density is greater than or equal to 800 kg/m3, and false where it is lower.

>>> category("CCCCCCC")
"false"
>>> category("OCc1ccccc1")
"true"
>>> category("CCCCCC")
"false"

Consider the additional molecule presented here.
Determine whether this molecule has mass density no lower than 800 kg/m3: CCCCCCCCC
false
